Data origin, for the record: ChEMBL document CHEMBL4304771

test: Mean residence time in ICR mouse at 50 mg/kg, po administered as single dose measured for 24 hrs by HPLC analysis; assay type: ADME, organism-based; settings: in vivo
Threshold 2 h: MRT strictly smaller gives fulfilled, otherwise not fulfilled.

> print(dat)
                               smiles.input  category.label
1  CCc1nc2ccc(Br)cn2c1C(=O)NCCOc1ccc(N2CCC(C(F)(F)F)CC2)cc1       fulfilled
2  CCc1nc2ccc(Br)cn2c1C(=O)NCCOc1ccc(N2CCCCC2)cc1   not fulfilled
3  COc1ccc2nc(C)c(C(=O)NCCOc3ccc(N4CCC(C(F)(F)F)CC4)cc3)n2c1       fulfilled
4  CCc1nc2ccc(Cl)cn2c1C(=O)NCCOc1ccc(N2CCN(c3ccc(F)cc3)CC2)cc1   not fulfilled
5  CCc1nc2ccc(Cl)cn2c1C(=O)NCCOc1ccc(N(C)C)cc1       fulfilled

----------
Catalogue of half-life readings, one per entry.
test: Half-life in ICR mouse at 50 mg/kg, po administered as single dose measured for 24 hrs by HPLC analysis; assay type: ADME, organism-based; details: in vivo
observable: half-life (min)

> print(dat)
                               smiles.input  result.units  readout.number
1  CCc1nc2ccc(Br)cn2c1C(=O)NCCOc1ccc(N2CCC(C(F)(F)F)CC2)cc1           min             283
2  CCc1nc2ccc(Cl)cn2c1C(=O)NCCOc1ccc(N(C)C)cc1           min             162
3  CCc1nc2ccc(Cl)cn2c1C(=O)NCCOc1ccc(N2CCN(c3ccc(F)cc3)CC2)cc1           min             265
4  CCc1nc2ccc(Br)cn2c1C(=O)NCCOc1ccc(N2CCCCC2)cc1           min             251
5  COc1ccc2nc(C)c(C(=O)NCCOc3ccc(N4CCC(C(F)(F)F)CC4)cc3)n2c1           min              55

----------
Documented MIC across a set of molecules
tested on: Mycobacterium tuberculosis; experiment: Antitubercular activity against Mycobacterium tuberculosis H37Rv ATCC 27294 assessed as parasite growth inhibition measured after 7 days incubation by microplate alamar blue assay; format: functional; conditions: H37Rv ATCC 27294, 168 h
observable: MIC (µg/mL)

> print(dat)
                               smiles.input  readout.number
1    Cc1nc2c(C)cccn2c1C(=O)NCCOc1ccc(Br)cc1            13.9
2  CCc1nc2ccc(Cl)cn2c1C(=O)NCCOc1ccc(Br)cc1           0.023
3  Cc1ccc2nc(C3CC3)c(C(=O)NCCOc3ccc(Br)cc3)n2c1           0.052
4  CCCc1nc2ccc(F)cn2c1C(=O)NCCOc1ccc(Br)cc1            2.68

----------
system: Mycobacterium tuberculosis; experiment: Antitubercular activity against Mycobacterium tuberculosis H37Rv ATCC 27294 assessed as parasite growth inhibition measured after 7 days incubation by microplate alamar blue assay; assay type: functional; details: H37Rv ATCC 27294, 168 h
Each entry below carries its reported MIC.
observable: MIC

molecule	result
Cc1nc2ccc(F)cn2c1C(=O)NCCOc1ccc(Cl)cc1	3.84 µg/mL
CCc1nc2ccc(Cl)cn2c1C(=O)NCCOc1ccc(N(C)C)cc1	0.0625 µg/mL
Cc1nc2ccc(Br)cn2c1C(=O)NCCOc1ccc(Br)cc1	0.358 µg/mL
CCCc1nc2ccc(F)cn2c1C(=O)NCCOc1ccc(Cl)cc1	1.14 µg/mL
CCc1nc2ccc(Cl)cn2c1C(=O)NCc1ccc(N2CCC(c3ccc(OC(F)(F)F)cc3)CC2)cc1	0.0625 µg/mL
COc1ccc2nc(C)c(C(=O)NCCOc3ccc(N4CC5CCCCC5C4)cc3)n2c1 (configuration not stated)	0.0625 µg/mL
CCc1nc2ccc(C)cn2c1C(=O)NCCOc1ccc(N2CCN(C)CC2)cc1	4 µg/mL
CCc1nc2ccc(Cl)cn2c1C(=O)NCCOc1ccc(Cl)cc1	0.029 µg/mL
CCCc1nc2ccc(Cl)cn2c1C(=O)NCCOc1ccc(Cl)cc1	0.631 µg/mL
Cc1nc2ccc(F)cn2c1C(=O)NCCOc1ccc(Br)cc1	1.21 µg/mL
CCc1nc2ccc(Cl)cn2c1C(=O)NCCOc1ccc(N2CCN(c3ccc(F)cc3)CC2)cc1	0.0625 µg/mL
Cc1ccn2c(C(=O)NCCOc3ccc(Br)cc3)c(C3CC3)nc2c1	5 µg/mL
CCc1nc2ccc(Br)cn2c1C(=O)NCCOc1ccc(Br)cc1	0.025 µg/mL
Cc1nc2c(Cl)cccn2c1C(=O)NCCOc1ccc(Br)cc1	0.505 µg/mL
Cc1nc2cc(Cl)ccn2c1C(=O)NCCOc1ccc(Br)cc1	2.68 µg/mL
CCc1nc2ccc(C)cn2c1C(=O)NCCOc1ccc(OC)cc1	0.023 µg/mL
CCc1nc2ccc(Br)cn2c1C(=O)NCCOc1ccc(N2CCN(C)CC2)cc1	1 µg/mL
CCc1nc2c(Cl)cccn2c1C(=O)NCCOc1ccc(Br)cc1	17.5 µg/mL
Cc1nc2ccc(Cl)cn2c1C(=O)NCCOc1ccc(Br)cc1	0.488 µg/mL
COc1ccc2nc(C)c(C(=O)NCCOc3ccc(Br)cc3)n2c1	0.028 µg/mL
Cc1ccc2nc(C)c(C(=O)NCCOc3ccc(Br)cc3)n2c1	0.031 to 0.125 µg/mL
COc1ccc(OCCNC(=O)c2c(C3CC3)nc3ccc(C)cn23)cc1	0.027 µg/mL
CCc1nc2cc(Cl)ccn2c1C(=O)NCCOc1ccc(Br)cc1	6.35 µg/mL
CCCc1nc2ccc(Cl)cn2c1C(=O)NCCOc1ccc(Br)cc1	0.054 µg/mL
NNC(=O)c1ccncc1	0.049 µg/mL
Cc1ccc2nc(C)c(C(=O)NCCOc3ccncc3)n2c1	> 32 µg/mL
CO[C@H]1/C=C/O[C@@]2(C)Oc3c(C)c(O)c4c(O)c(c(/C=N/N5CCN(C)CC5)c(O)c4c3C2=O)NC(=O)/C(C)=C\C=C\[C@H](C)[C@H](O)[C@@H](C)[C@@H](O)[C@@H](C)[C@H](OC(C)=O)[C@@H]1C	0.05 µg/mL
CCc1nc2ccc(Cl)cn2c1C(=O)NCCOc1ccncc1	> 32 µg/mL
Cc1nc2ccc([N+](=O)[O-])cn2c1C(=O)NCCOc1ccc(Br)cc1	1.28 µg/mL
COc1ccc2nc(C)c(C(=O)NCCOc3ccc(N4CCC(C(F)(F)F)CC4)cc3)n2c1	0.0625 µg/mL
COc1ccc2nc(C)c(C(=O)NCCOc3ccc(N4CCN(C)CC4)cc3)n2c1	0.5 µg/mL
CCc1nc2ccc(C)cn2c1C(=O)NCCOc1ccc(Br)cc1	0.275 µg/mL
O=C(NCCOc1ccc(Br)cc1)c1c(C2CC2)nc2ccc(Cl)cn12	0.098 µg/mL
O=c1nc(N2CCN(CC3CCCCC3)CC2)sc2c([N+](=O)[O-])cc(C(F)(F)F)cc12	0.0625 µg/mL
CCCc1nc2ccc(C)cn2c1C(=O)NCCOc1ccc(Cl)cc1	0.631 µg/mL
CCc1nc2ccc(Br)cn2c1C(=O)NCCOc1ccc(N2CCCCC2)cc1	0.0625 µg/mL
CCc1nc2cc(Cl)ccn2c1C(=O)NCCOc1ccc(Cl)cc1	5.86 µg/mL
CCc1nc2ccc(C)cn2c1C(=O)NCCOc1ccc(N2CC3CCCCC3C2)cc1 (configuration not stated)	0.0625 µg/mL
CCc1nc2ccc(Cl)cn2c1C(=O)NCCOc1ccc(OC)cc1	0.056 µg/mL
CCc1nc2ccc(F)cn2c1C(=O)NCCOc1ccc(Br)cc1	0.202 µg/mL
Cc1nc2cccc(Cl)n2c1C(=O)NCCOc1ccc(Br)cc1	2.52 µg/mL
O=C(NCCOc1ccc(Br)cc1)c1c(C2CC2)nc2ccc(F)cn12	0.928 µg/mL

----------
assay: Acute toxicity in ICR mouse assessed as animal survival at 500 mg/kg, po administered as single dose measured for 7 days; type: organism-based; details: in vivo
Some molecules, each annotated with its measured survival at 168 h.
observable: survival at 168 h (%)

> print(dat)
                                   molecule         observable  result.units  readout.number
1  CCc1nc2ccc(Br)cn2c1C(=O)NCCOc1ccc(N2CCC(C(F)(F)F)CC2)cc1  survival at 168 h             %             100
2  COc1ccc2nc(C)c(C(=O)NCCOc3ccc(N4CCC(C(F)(F)F)CC4)cc3)n2c1  survival at 168 h             %             100
3  CCc1nc2ccc(Cl)cn2c1C(=O)NCCOc1ccc(N(C)C)cc1  survival at 168 h             %             100
4  CCc1nc2ccc(Br)cn2c1C(=O)NCCOc1ccc(N2CCCCC2)cc1  survival at 168 h             %             100
5  CCc1nc2ccc(Cl)cn2c1C(=O)NCCOc1ccc(N2CCN(c3ccc(F)cc3)CC2)cc1  survival at 168 h             %             100
6  CCc1nc2ccc(C)cn2c1C(=O)NCCOc1ccc(N2CC3CCCCC3C2)cc1 (stereo unspecified)  survival at 168 h             %               0
